Test: Cmax in Sprague-Dawley rat at 2 mg/kg, iv and po
Assay type: ADME, organism-based
Parameters: dose 2 mg/kg, route oral
Details: in vivo

| Compound String | Cmax [ng/mL] |
| --- | --- |
| CN1Cc2cc(Cl)ccc2-n2c(nnc2C2CCN(c3ccccn3)CC2)C1 | 97 |

---

Assay: Tmax in Sprague-Dawley rat at 2 mg/kg, iv and po
Assay type: ADME, organism-based
Design: dose 2 mg/kg, route oral
Conditions: in vivo
Endpoint: Tmax (min)

| Compound String | Scale Unit | Quantitative Readout |
| --- | --- | --- |
| CN1Cc2cc(Cl)ccc2-n2c(nnc2C2CCN(c3ccccn3)CC2)C1 | min | 48 |
